Quick reference for composite z-score among some molecules
Experiment: probe aLAP1 signal on lysate-treated microarray – cell lysate, small-molecule microarray, COS7 lysate, primary screen (AID 1124);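 also: lysate comes from COS7 cells expressing LAP1 and is applied at 0.3 µg/mL; score merges spot fluorescence near 667 nm with signal-to-noise over triplicate slides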
Conditions: probe aLAP1, fluorescence, higher = more signal
I'd appreciate a reply containing only the number, no unit.

Worked examples, 5 molecules total:
[N-]=[N+]=Nc1ccccc1C[C@]1(C(=O)NCCN2CCOCC2)COC(c2ccc(OCCCO)cc2)=N1; 1.26
CC(C)c1ccc(NN2C(C(O)c3ccc(C#N)cc3)C=CC3C(=O)N(c4ccccc4)C(=O)C32)cc1 (stereo unspecified); 0.982
COc1cccc(C)c1NC(=O)O[C@H]1[C@H](OC(=O)Nc2ccc3c(c2)OCO3)[C@@H](OC(=O)Nc2ccc3c(c2)OCO3)[C@@H](OC)O[C@@H]1CO; 1.29
O=C(Cc1ccccc1)[C@H]1C2C=CCCC(c3ccccc3)=C2CN1Cc1ccccc1 (stereo partly specified); 0.0448
CN(C)C(=O)[C@]1(Cc2ccccc2CN=[N+]=[N-])N=C(c2ccc(OCCCO)cc2)O[C@@H]1c1ccccc1; 0.454

composite z-score for `COc1ccc(C#Cc2ccc3c(c2)[C@]2(C(=O)N3)[C@H](c3ccc(O)cc3)N3[C@H](c4ccccc4)[C@H](c4ccccc4)OC(=O)[C@H]3[C@@H]2C(=O)Nc2nc3ccccc3s2)cc1` ?
0.98

---

Test: basal CRE-LacZ reporter activity in PC12 – cell-based, unstimulated, primary screen (AID 1145)
Conditions: no forskolin, luminescence, 4.5 h, higher = more signal, called active from +8 up or from −8 down
We use 3 as the dividing line for z-score: on or above the line is 1.0, below is 0.0.

CC[C@@H]1C=C(C(=O)O)[C@H](c2ccccc2)N1S(=O)(=O)c1ccc(C)cc1; 0.0
C=CCNC(=O)[C@@H]1[C@H]2C(=O)O[C@H](c3ccccc3)[C@H](c3ccccc3)N2[C@H](c2ccccc2OCCO)[C@@]12C(=O)Nc1ccc(C#CCC(C(=O)OC)C(=O)OC)cc12; 0.0
CCCCCCCCCC(O)C1C=CC2C(=O)N(c3ccccc3)C(=O)C2N1Nc1cc(OC)c(OC)c(OC)c1 (stereo unspecified); 0.0
CCCCC(=C=CC[C@H](O)c1ccc(OCCO)cc1)CCO; 0.0
O=C(NCCN1CCOCC1)[C@@H]1c2ccccc2C(=O)N(Cc2ccccc2Cl)[C@H]1c1ccc(CO)cc1; 0.0
O=C(Cc1ccccc1)[C@H]1C2C=CCCC(c3ccccc3)=C2CN1Cc1ccccc1 (stereo partly specified); 1.0
COc1ccc(CCNC(=O)[C@@H]2c3ccccc3C(=O)N(C3CCCCC3)[C@H]2c2ccc(CO)cc2)cc1; 0.0
C=C[C@@H](CO)N(Cc1ccc(OC)cc1)S(=O)(=O)c1ccc(Br)cc1; 0.0
O[C@@H](Cc1ccccc1)[C@@H](/C=C/C1CC1)N(CC#Cc1ccccc1)Cc1ccccc1Br; 0.0

Now look at this one.
Is the recorded value of z-score equal to or greater than 3 for this compound? `C=C[C@H](C)[C@H](OC(=O)Nc1ccc(SC)cc1)c1ccc(OCCO)cc1`
1.0

---

Biological target: Epidermal growth factor receptor (Homo sapiens)
Assay: compounds binding epidermal growth factor receptor – biochemical, small-molecule microarray, 635 nm fluorescence, primary screen (AID 1104);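 also: score merges 667 nm emission intensity with spot signal to noise over triplicate slides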
Details: EGFR binding, higher = more signal
measure_name: composite z-score
I'd appreciate a reply containing only the number, no unit.

CC(c1ccccc1)C(O)C1C=CC2C(=O)N(C)C(=O)C2N1Nc1ccccc1 (stereo unspecified); 0.0188
CCCC=C(CCC)[C@@H](NC(=O)C(C)(C)C)c1ccc(C(=O)OC)cc1; -0.0375
COC(=O)[C@@]1(Cc2ccc(OC)cc2)[C@H]2c3cc(C(=O)N(C)C)n(Cc4ccc(C)o4)c3C[C@H]2CN1C(=O)c1ccccc1; -0.102

composite z-score for `CCOC(=O)C[C@H]1[C@H](OC(=O)c2ccccc2-c2ccccc2)[C@@H](NC(=O)c2ccc3ccccc3c2)c2cc(OCCCO)ccc2N1C(=O)c1ccccc1` ?
0.505

Entry `COCCOC(=O)N1C(=O)[C@@]2(c3cc(C#CC4=CCCCC4)ccc31)[C@H](C(=O)Nc1nc3ccccc3s1)[C@H]1C(=O)O[C@H](c3ccccc3)[C@H](c3ccccc3)N1[C@@H]2c1ccc(O)cc1` please
0.635

Entry `C=C(/C(=C/C[C@H](OC(C)=O)c1ccc(CO)o1)c1cnc2ccccc2c1)C(C)C` please
0.845

Reference source for all entries: PubChem BioAssay
